# condition details: in n-butanol, 293.15 K
attribute measured: solubility (mole fraction)

1. O=C(N[C@@H](CO)C(=O)O)OCc1ccccc1; 0.0388

###

# condition details: in n-butanol, 313.15 K
attribute measured: solubility (mole fraction)

1) O=C(N[C@@H](CO)C(=O)O)OCc1ccccc1; 0.0821

###

# condition details: in methyl acetate, 313.15 K
attribute measured: solubility (mole fraction)

1) O=C(N[C@@H](CO)C(=O)O)OCc1ccccc1; 0.0536

###

# condition details: in n-butanol, 318.15 K
attribute measured: solubility (mole fraction)

1. O=C(N[C@@H](CO)C(=O)O)OCc1ccccc1; 0.102

###

# condition details: in sec-butanol, 323.15 K
attribute measured: solubility (mole fraction)

1. O=C(N[C@@H](CO)C(=O)O)OCc1ccccc1; 0.159

###

# condition details: in water, 323.15 K
attribute measured: solubility (mole fraction)

1. O=C(N[C@@H](CO)C(=O)O)OCc1ccccc1; 0.00737

###

# condition details: in n-propanol, 303.15 K
attribute measured: solubility (mole fraction)

1. O=C(N[C@@H](CO)C(=O)O)OCc1ccccc1; 0.0838

###

# condition details: in acetone, 293.15 K
attribute measured: solubility (mole fraction)

1. O=C(N[C@@H](CO)C(=O)O)OCc1ccccc1; 0.0835

###

# condition details: in acetonitrile, 313.15 K
attribute measured: solubility (mole fraction)

1) O=C(N[C@@H](CO)C(=O)O)OCc1ccccc1; 0.0276

###

# condition details: in n-butanol, 298.15 K
attribute measured: solubility (mole fraction)

1. O=C(N[C@@H](CO)C(=O)O)OCc1ccccc1; 0.0463

###

# condition details: in acetone, 283.15 K
attribute measured: solubility (mole fraction)

1) O=C(N[C@@H](CO)C(=O)O)OCc1ccccc1; 0.0708

###

# condition details: in 2-butanone, 323.15 K
attribute measured: solubility (mole fraction)

1. O=C(N[C@@H](CO)C(=O)O)OCc1ccccc1; 0.115

###

# condition details: in ethyl acetate, 323.15 K
attribute measured: solubility (mole fraction)

1. O=C(N[C@@H](CO)C(=O)O)OCc1ccccc1; 0.0541

###

# condition details: in acetone, 298.15 K
attribute measured: solubility (mole fraction)

1) O=C(N[C@@H](CO)C(=O)O)OCc1ccccc1; 0.0955

###

# condition details: in isopropanol, 298.15 K
attribute measured: solubility (mole fraction)

1. O=C(N[C@@H](CO)C(=O)O)OCc1ccccc1; 0.0707

###

# condition details: in isobutanol, 318.15 K
attribute measured: solubility (mole fraction)

1. O=C(N[C@@H](CO)C(=O)O)OCc1ccccc1; 0.0912

###

# condition details: in ethyl acetate, 303.15 K
attribute measured: solubility (mole fraction)

1. O=C(N[C@@H](CO)C(=O)O)OCc1ccccc1; 0.0257

###

# condition details: in n-butanol, 283.15 K
attribute measured: solubility (mole fraction)

1. O=C(N[C@@H](CO)C(=O)O)OCc1ccccc1; 0.0279

###

# condition details: in water, 283.15 K
attribute measured: solubility (mole fraction)

1) O=C(N[C@@H](CO)C(=O)O)OCc1ccccc1; 0.00097

###

# condition details: in ethyl acetate, 283.15 K
attribute measured: solubility (mole fraction)

1. O=C(N[C@@H](CO)C(=O)O)OCc1ccccc1; 0.0143

###

# condition details: in isopropanol, 313.15 K
attribute measured: solubility (mole fraction)

1. O=C(N[C@@H](CO)C(=O)O)OCc1ccccc1; 0.123

###

# condition details: in methyl acetate, 293.15 K
attribute measured: solubility (mole fraction)

1) O=C(N[C@@H](CO)C(=O)O)OCc1ccccc1; 0.0318

###

# condition details: in 2-butanone, 303.15 K
attribute measured: solubility (mole fraction)

1. O=C(N[C@@H](CO)C(=O)O)OCc1ccccc1; 0.052

###

# condition details: in water, 308.15 K
attribute measured: solubility (mole fraction)

1) O=C(N[C@@H](CO)C(=O)O)OCc1ccccc1; 0.00247

###

# condition details: in isobutanol, 313.15 K
attribute measured: solubility (mole fraction)

1) O=C(N[C@@H](CO)C(=O)O)OCc1ccccc1; 0.0665

###

# condition details: in sec-butanol, 283.15 K
attribute measured: solubility (mole fraction)

1) O=C(N[C@@H](CO)C(=O)O)OCc1ccccc1; 0.0335

###

# condition details: in water, 318.15 K
attribute measured: solubility (mole fraction)

1) O=C(N[C@@H](CO)C(=O)O)OCc1ccccc1; 0.00448

###

# condition details: in acetone, 303.15 K
attribute measured: solubility (mole fraction)

1. O=C(N[C@@H](CO)C(=O)O)OCc1ccccc1; 0.11

###

# condition details: in ethyl acetate, 318.15 K
attribute measured: solubility (mole fraction)

1. O=C(N[C@@H](CO)C(=O)O)OCc1ccccc1; 0.0429

###

# condition details: in sec-butanol, 293.15 K
attribute measured: solubility (mole fraction)

1. O=C(N[C@@H](CO)C(=O)O)OCc1ccccc1; 0.0471

###

# condition details: in n-pentanol, 318.15 K
attribute measured: solubility (mole fraction)

1) O=C(N[C@@H](CO)C(=O)O)OCc1ccccc1; 0.0854

###

# condition details: in water, 313.15 K
attribute measured: solubility (mole fraction)

1. O=C(N[C@@H](CO)C(=O)O)OCc1ccccc1; 0.00309

###

# condition details: in isopropanol, 288.15 K
attribute measured: solubility (mole fraction)

1) O=C(N[C@@H](CO)C(=O)O)OCc1ccccc1; 0.0505

###

# condition details: in isobutanol, 283.15 K
attribute measured: solubility (mole fraction)

1. O=C(N[C@@H](CO)C(=O)O)OCc1ccccc1; 0.0221

###

# condition details: in methyl acetate, 308.15 K
attribute measured: solubility (mole fraction)

1. O=C(N[C@@H](CO)C(=O)O)OCc1ccccc1; 0.0477

###

# condition details: in acetone, 308.15 K
attribute measured: solubility (mole fraction)

1. O=C(N[C@@H](CO)C(=O)O)OCc1ccccc1; 0.127

###

# condition details: in n-pentanol, 288.15 K
attribute measured: solubility (mole fraction)

1. O=C(N[C@@H](CO)C(=O)O)OCc1ccccc1; 0.0286

###

# condition details: in ethyl acetate, 288.15 K
attribute measured: solubility (mole fraction)

1) O=C(N[C@@H](CO)C(=O)O)OCc1ccccc1; 0.0163

###

# condition details: in n-propanol, 313.15 K
attribute measured: solubility (mole fraction)

1) O=C(N[C@@H](CO)C(=O)O)OCc1ccccc1; 0.11

###

# condition details: in n-pentanol, 323.15 K
attribute measured: solubility (mole fraction)

1. O=C(N[C@@H](CO)C(=O)O)OCc1ccccc1; 0.112

###

# condition details: in n-propanol, 308.15 K
attribute measured: solubility (mole fraction)

1. O=C(N[C@@H](CO)C(=O)O)OCc1ccccc1; 0.0956

###

# condition details: in water, 303.15 K
attribute measured: solubility (mole fraction)

1. O=C(N[C@@H](CO)C(=O)O)OCc1ccccc1; 0.002

###

# condition details: in ethyl acetate, 298.15 K
attribute measured: solubility (mole fraction)

1. O=C(N[C@@H](CO)C(=O)O)OCc1ccccc1; 0.0217

###

# condition details: in sec-butanol, 298.15 K
attribute measured: solubility (mole fraction)

1. O=C(N[C@@H](CO)C(=O)O)OCc1ccccc1; 0.0585

###

# condition details: in acetone, 323.15 K
attribute measured: solubility (mole fraction)

1. O=C(N[C@@H](CO)C(=O)O)OCc1ccccc1; 0.205

###

# condition details: in 2-butanone, 283.15 K
attribute measured: solubility (mole fraction)

1) O=C(N[C@@H](CO)C(=O)O)OCc1ccccc1; 0.0333

###

# condition details: in n-propanol, 318.15 K
attribute measured: solubility (mole fraction)

1) O=C(N[C@@H](CO)C(=O)O)OCc1ccccc1; 0.127

###

# condition details: in sec-butanol, 288.15 K
attribute measured: solubility (mole fraction)

1) O=C(N[C@@H](CO)C(=O)O)OCc1ccccc1; 0.0385

###

# condition details: in isobutanol, 298.15 K
attribute measured: solubility (mole fraction)

1) O=C(N[C@@H](CO)C(=O)O)OCc1ccccc1; 0.0365

###

# condition details: in water, 293.15 K
attribute measured: solubility (mole fraction)

1. O=C(N[C@@H](CO)C(=O)O)OCc1ccccc1; 0.00133

###

# condition details: in acetone, 288.15 K
attribute measured: solubility (mole fraction)

1) O=C(N[C@@H](CO)C(=O)O)OCc1ccccc1; 0.0762

###

# condition details: in isobutanol, 323.15 K
attribute measured: solubility (mole fraction)

1) O=C(N[C@@H](CO)C(=O)O)OCc1ccccc1; 0.115

###

# condition details: in acetone, 313.15 K
attribute measured: solubility (mole fraction)

1. O=C(N[C@@H](CO)C(=O)O)OCc1ccccc1; 0.15

###

# condition details: in n-pentanol, 313.15 K
attribute measured: solubility (mole fraction)

1) O=C(N[C@@H](CO)C(=O)O)OCc1ccccc1; 0.0628
